B1: SNX8 (parent)
chain: VVLKLFLSFSGSDVQNKLKESAQC

# Variants of: B1
# assayDetails: protein stability index of a GFP-peptide fusion (GPS, HEK-293T) (PSI 1-6); higher = more stable;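 note: lentivirally expressed fusions sorted by FACS into six bins by GFP to DsRed ratio, PSI derived from sequencing read proportions per bin multiplied by bin number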
# conditionSummary: c terminus: a fixed tail appended
Class (by protein stability index) -- L (below 2), M (2 to below 3), H (3 or more)

> print(dat)
   variantid  assignedlabel
1        V2L              M
2       G11R              H
3       G11F              H

**Q:** Just checking, what class would you give `G11S` here?
**A:** M

**Q:** Hi, small favor: classify `E20N` by its protein stability index when you get a moment.
**A:** H

**Q:** Form field 'band' for `A22E`
**A:** H

**Q:** Class label required: `Q15F`
**A:** H

**Q:** Class (by measured protein stability index) for `Q23F`
**A:** L

**Q:** Which protein stability index category applies to `S12P` here?
**A:** H

**Q:** Hi, small favor: classify `C24L` by its protein stability index when you get a moment.
**A:** H

**Q:** Class (by measured protein stability index) for `K17V`
**A:** M

**Q:** Input `V2D` ; output its category
**A:** L

**Q:** Given `F6I` , name the class its protein stability index places it in.
**A:** M
